Value source: patent US12441726B2

STUDY TARGET: BRM (Homo sapiens)
Sequence (P51531 whole entry): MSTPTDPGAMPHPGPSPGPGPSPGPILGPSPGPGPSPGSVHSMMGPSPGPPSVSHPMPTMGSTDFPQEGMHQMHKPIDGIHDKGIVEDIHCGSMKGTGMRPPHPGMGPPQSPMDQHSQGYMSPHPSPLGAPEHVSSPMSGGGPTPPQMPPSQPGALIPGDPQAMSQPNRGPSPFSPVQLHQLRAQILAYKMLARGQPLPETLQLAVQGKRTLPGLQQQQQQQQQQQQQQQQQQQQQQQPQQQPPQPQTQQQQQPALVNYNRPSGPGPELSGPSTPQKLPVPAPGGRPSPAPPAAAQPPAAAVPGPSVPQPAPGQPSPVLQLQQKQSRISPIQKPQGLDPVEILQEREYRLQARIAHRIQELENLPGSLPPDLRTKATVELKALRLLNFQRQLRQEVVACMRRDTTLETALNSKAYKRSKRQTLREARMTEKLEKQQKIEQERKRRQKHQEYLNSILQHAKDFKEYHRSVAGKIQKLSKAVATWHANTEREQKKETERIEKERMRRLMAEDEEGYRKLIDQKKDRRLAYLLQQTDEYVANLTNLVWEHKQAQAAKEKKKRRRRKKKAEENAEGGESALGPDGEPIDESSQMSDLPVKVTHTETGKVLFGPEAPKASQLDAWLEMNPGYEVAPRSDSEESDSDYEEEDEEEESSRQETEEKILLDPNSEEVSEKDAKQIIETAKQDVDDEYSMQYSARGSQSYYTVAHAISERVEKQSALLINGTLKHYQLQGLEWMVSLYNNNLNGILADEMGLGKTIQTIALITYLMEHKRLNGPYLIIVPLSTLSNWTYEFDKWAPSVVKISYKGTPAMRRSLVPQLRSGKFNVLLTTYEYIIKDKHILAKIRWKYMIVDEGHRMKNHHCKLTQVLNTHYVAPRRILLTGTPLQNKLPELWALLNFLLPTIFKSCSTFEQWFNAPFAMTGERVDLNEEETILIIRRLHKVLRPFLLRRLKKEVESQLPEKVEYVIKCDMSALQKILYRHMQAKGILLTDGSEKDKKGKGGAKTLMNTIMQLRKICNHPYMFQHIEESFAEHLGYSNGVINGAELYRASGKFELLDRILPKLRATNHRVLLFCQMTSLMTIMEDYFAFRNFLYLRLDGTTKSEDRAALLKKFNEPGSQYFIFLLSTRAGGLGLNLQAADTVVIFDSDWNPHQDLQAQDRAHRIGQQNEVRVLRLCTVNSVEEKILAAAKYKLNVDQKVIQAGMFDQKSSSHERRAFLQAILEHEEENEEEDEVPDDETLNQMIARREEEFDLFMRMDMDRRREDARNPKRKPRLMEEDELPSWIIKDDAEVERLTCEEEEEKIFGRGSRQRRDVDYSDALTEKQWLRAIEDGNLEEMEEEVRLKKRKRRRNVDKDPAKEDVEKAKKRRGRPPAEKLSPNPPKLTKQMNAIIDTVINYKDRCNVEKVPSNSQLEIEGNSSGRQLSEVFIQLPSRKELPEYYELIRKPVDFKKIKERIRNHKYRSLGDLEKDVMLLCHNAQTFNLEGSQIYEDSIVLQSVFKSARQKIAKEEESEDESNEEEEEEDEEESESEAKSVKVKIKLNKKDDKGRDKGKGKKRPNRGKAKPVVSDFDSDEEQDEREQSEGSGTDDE
TEST: ATPase catalytic activity assay (ADP-Glo), BRM
CONDITION LABEL: 30 nM BRM, 400 μM ATP
ATTRIBUTE MEASURED: BRM Max % Inhibition (%)
Entry rule: numbers only, all in %.

Solved entries:
C[C@@]1(C#N)COCc2ccc(C(=O)NCc3cc4nc(C5CC5)ccc4cn3)cc21 ... 83
COc1cc(C(C)(C)C)ccc1-c1ccc2cnc(CNC(=O)c3ccc4c(c3)[C@](C)(C#N)COC4)cc2n1 ... 90
C[C@@]1(C#N)CCOc2ccc(C(=O)NCc3cc4nc(-c5ccccc5)sc4cn3)cc21 ... 89

Asked: // query BRM Max % Inhibition value for entry C[C@@H]1CN(c2nccc(-c3ccc4cnc(CNC(=O)c5ccc6c(c5)[C@](C)(C#N)COC6)cc4n3)n2)CCO1
Given back: 99

Asked: Request the reported BRM Max % Inhibition associated with C[C@@]1(C#N)COCc2ccc(C(=O)NCc3cc(N4CC(n5ccc6ccccc65)C4)ccn3)cc21
Given back: 93

Asked: Look at this compound and give its reported BRM Max % Inhibition. COc1nn(C)cc1-c1ccc2cnc(CNC(=O)c3ccc4c(c3)[C@](C)(F)COC4)cc2c1
Given back: 100

Asked: For the compound C[C@@]1(C#N)COCc2ccc(C(=O)NCc3cc4nc(-c5cccc(N6CCOCC6)n5)ccc4cn3)cc21 , what BRM Max % Inhibition is on record?
Given back: 103

Asked: Please report the recorded BRM Max % Inhibition for C[C@@]1(C#N)COCc2ccc(C(=O)NCc3cc4nc(-c5cccc(C6(O)CC6)n5)ccc4cn3)cc21 .
Given back: 101

Asked: Any idea what BRM Max % Inhibition was measured for C[C@@]1(C#N)COCc2ccc(C(=O)NCc3cc4nc(-c5cccc(C(F)F)n5)ccc4cn3)cc21 ?
Given back: 98

Asked: Return reported BRM Max % Inhibition; argument: C[C@@]1(C#N)COCc2ncc(C(=O)NCc3cc4nc(-c5cccc(N6CCC6)n5)ccc4cn3)cc21
Given back: 99

Asked: Look at this compound and give its reported BRM Max % Inhibition. CO[C@H]1CCN(c2nccc(-c3ccc4cnc(CNC(=O)c5ccc6c(c5)[C@](C)(C#N)COC6)cc4n3)n2)C1
Given back: 100

Asked: Name the reported BRM Max % Inhibition value associated with the compound C[C@@]1(C#N)COCc2ccc(C(=O)NCc3cc4nc(N5CCCN(C6CCC6)C5=O)ccc4cn3)cc21
Given back: 96

Asked: Returns the measured BRM Max % Inhibition for the input compound. Input: C[C@@]1(C#N)COCc2ccc(C(=O)NCc3ncc4ccc(-c5cncc(C6CC6)n5)nc4c3F)cc21
Given back: 97

Asked: # input compound: C[C@@]1(F)COCc2ccc(C(=O)NCc3cc4cc(-c5cncc(N6CCC6)n5)ccc4cn3)cc21 ; wanted: its BRM Max % Inhibition
Given back: 103

Asked: Any idea what BRM Max % Inhibition was measured for Cn1c(=O)ccc2ccc(-c3ccc4cnc(CNC(=O)c5ccc6c(c5)[C@](C)(C#N)COC6)cc4n3)nc21 ?
Given back: 100
